- TARGET SYSTEM: Mucosa-associated lymphoid tissue lymphoma translocation protein 1 (Homo sapiens)
- Sequence (Q9UDY8 whole entry): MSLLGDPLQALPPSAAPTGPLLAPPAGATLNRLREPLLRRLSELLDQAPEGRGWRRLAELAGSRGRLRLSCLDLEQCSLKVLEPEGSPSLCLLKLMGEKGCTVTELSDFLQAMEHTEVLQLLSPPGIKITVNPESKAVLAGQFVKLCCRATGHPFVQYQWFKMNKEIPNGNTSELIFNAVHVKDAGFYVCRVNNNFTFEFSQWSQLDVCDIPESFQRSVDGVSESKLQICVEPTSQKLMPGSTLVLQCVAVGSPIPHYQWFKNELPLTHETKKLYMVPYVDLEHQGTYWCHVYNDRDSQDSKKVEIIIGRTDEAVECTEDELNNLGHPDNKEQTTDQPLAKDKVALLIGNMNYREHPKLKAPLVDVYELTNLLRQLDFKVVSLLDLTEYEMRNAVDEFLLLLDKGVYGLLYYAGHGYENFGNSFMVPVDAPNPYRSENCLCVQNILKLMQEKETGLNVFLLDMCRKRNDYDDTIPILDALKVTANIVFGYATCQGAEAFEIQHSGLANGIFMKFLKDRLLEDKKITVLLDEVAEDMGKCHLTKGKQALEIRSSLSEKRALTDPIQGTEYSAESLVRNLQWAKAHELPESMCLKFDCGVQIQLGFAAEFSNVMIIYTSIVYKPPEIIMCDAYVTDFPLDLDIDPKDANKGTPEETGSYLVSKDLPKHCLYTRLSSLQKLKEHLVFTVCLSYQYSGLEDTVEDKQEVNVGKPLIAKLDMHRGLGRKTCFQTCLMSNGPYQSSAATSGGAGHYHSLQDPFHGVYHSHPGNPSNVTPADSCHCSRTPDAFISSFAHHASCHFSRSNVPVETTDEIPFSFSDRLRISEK
pIC50: −log10 of the molar value.
PROPERTY MEASURED: pIC50

[
  {
    "SMILES DATA": "N/C(=N\\S(=O)(=O)c1cccc(F)c1)NCc1cc(-c2ccc(Cl)cc2)n(-c2ccc(Cl)cc2)n1",
    "pIC50": 7.25
  }
]

a = N[C@H](C(=O)NCc1cc(-c2ccc(Cl)cc2)n(-c2ccc(Cl)cc2)n1)c1ccccc1
b = N[C@@H](C(=O)NCc1cc(-c2ccc(Cl)cc2)n(-c2ccc(Cl)cc2)n1)c1ccccc1
Given the listed items, does a or b have the lesser reported pIC50? Response format: the label of the selected entry. b

A = CC(=O)N[C@H](C(=O)NCc1cc(-c2ccc(Cl)cc2)n(-c2ccc(Cl)cc2)n1)C(C)C
B = CS(=O)(=O)/N=C(\N)NCc1cc(-c2ccc(Cl)cc2)n(-c2ccc(Cl)cc2)n1
C = CS(=O)(=O)/N=C(/NCc1cc(-c2ccc(Cl)cc2)n(-c2ccc(Cl)cc2)n1)NCc1cccs1
D = NC(=O)/N=C(\N)NCc1cc(-c2ccc(Cl)cc2)n(-c2ccc(Cl)cc2)n1
Ordering: ascending pIC50. // respond by listing labels in the order requested A, D, B, C
(A: 5.69, D: 5.95, B: 6.40, C: 7.59)

a = N#C/N=C(\N)NCc1cc(-c2ccc(Cl)cc2)n(-c2ccc(Cl)cc2)n1
b = N/C(=N\S(=O)(=O)c1ccncc1)NCc1cc(-c2ccc(Cl)cc2)n(-c2ccc(Cl)cc2)n1
Given the listed items, does a or b have the lesser reported pIC50? Response format: the label of the selected entry. a

Source: ChEMBL document CHEMBL5241134
